Molecular target: T1, mouse IGFBP7 recombinant protein (mouse, UniProt Q61581 26-281, biotinylated with EZ-LINK NHS-PEG4 biotin in the BLI assays (sites not given))
T1 chain: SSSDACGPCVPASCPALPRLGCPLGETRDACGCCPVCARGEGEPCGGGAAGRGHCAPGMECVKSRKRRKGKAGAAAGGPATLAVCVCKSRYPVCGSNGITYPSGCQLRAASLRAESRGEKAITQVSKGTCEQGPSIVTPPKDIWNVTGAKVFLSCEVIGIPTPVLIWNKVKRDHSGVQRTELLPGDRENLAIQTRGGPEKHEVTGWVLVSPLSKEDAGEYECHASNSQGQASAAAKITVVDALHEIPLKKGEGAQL
Assay: BLI
pKd: −log10 of the molar value.
READOUT: pKd

[[record]]
binder = "A1-mIgG2a nanobody Fc-fusion (Fc fusion, VHH fused with mIgG2a Fc fragment, expressed in Expi293 cells, Protein G purified; also called monoclonal A1-mIgG2a; monospecific A1-mIgG2a; not shown: mouse IgG2a Fc fragment (mIgG2a Fc)) VQLQESGGGLVQAGGSLRLSCAASGSLFAIDKWGWYRQVAGNERELVAWRYSPVSINYGDSVKGRFTVSGDSSRKRVYLQMNSLKPDDTAVYRCAAVISGAWYWGQGTQVTVSS"
result_value = 7.22

[[record]]
binder = "A11 mIgG2a (antibody, V domains shown) VH: VQLQESEGGWSGGGSGSGDFDYEKMANANNGAMTDNADAGKQREFVAAITSGGSINYADSVKGRFTISRDNTKKTVYLQMNSLKPEDTAVYVCNIKAHPNPWGFDNDYWGQGTQVTVSS"
result_value = 10.75

[[record]]
binder = "A4-mIgG2a nanobody Fc-fusion (Fc fusion) VQLQESGGGLVQPGGSLRLSCAASGTFTINTYLWYRQPPGKQREFVAAITRGGSINYADSVKGRFTISRDNAKKTVYLQMNSLKPEDTAVYVCNIKAHPNPWGFDNDYWGQGTQVTVSS"
result_value = 11.11

[[record]]
binder = "D4-mIgG2a nanobody Fc-fusion (Fc fusion, VHH fused with mIgG2a Fc fragment, expressed in Expi293 cells; also called monospecific D4-mIgG2a; not shown: mouse IgG2a Fc fragment (mIgG2a Fc)) VQLQESGGGLVQTGGSLRLSCAASGRSFTFSSYAMGWFRHAPGKEREFLTAITWSGDYTYYTDSVKGRSTISRDNAKNTVYLQLNNLKPEDTAVYYCAAKFSQVSAFFATVSEYEYWGQGTQVTVSS"
result_value = 7.92

